# tgt: rHDHFR (Homo sapiens, UniProt P00374)
# Construct: purchased Sigma
# Sequence (P00374 whole entry): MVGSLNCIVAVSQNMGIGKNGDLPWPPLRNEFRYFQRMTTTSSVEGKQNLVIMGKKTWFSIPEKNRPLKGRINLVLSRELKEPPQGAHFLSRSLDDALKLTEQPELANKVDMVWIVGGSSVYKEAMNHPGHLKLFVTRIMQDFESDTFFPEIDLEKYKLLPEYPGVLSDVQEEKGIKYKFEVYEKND
# assay details: rHDHFR inhibition, progress curves
# Type: biochemical
# condition context: overall (effective) inhibition constant; read-out: KI*
pKi: −log10 of the molar value.
quantity: pKi

compound: COc1cc(C(=O)O[C@H](Cc2c(O)cc(O)cc2O)C(=O)c2ccc(O)c(O)c2)cc(OC)c1OC
numeric readout: 8.09

compound: O=C(O[C@@H]1Cc2c(O)cc(O)cc2O[C@@H]1c1cc(O)c(O)c(O)c1)c1cc(O)c(O)c(O)c1 [EGCG, reference compound]
numeric readout: 7.48
